For each record, write down the corresponding TGI.
Test system: UO-31 renal
Protocol Description: NCI tumour cell line growth inhibition, 48 h
Give bare numbers, in µM.

Take a look at these entries with their results.
- Molecule: "Cc1ccc(OCC2OC(n3cnc4nc(Cl)nc(Cl)c43)CC2Oc2ccc(C)cc2)cc1 (centres undefined)"
  Tested System: "UO-31 renal"
  Readout Number: 22
- Molecule: "O=C(NCCCNc1cc(-c2cn(-c3ccccc3)nc2-c2cccc(O)c2)ccn1)c1ccccc1"
  Tested System: "UO-31 renal"
  Readout Number: 23.6

Then this molecule:
INPUT: Indicate its recorded TGI; the molecule in question is CC1=C[C@H]2c3c(c(O)c(O)c4oc5ccccc5c(=O)c34)[C@H](c3cc(O)c(O)c4oc5ccccc5c(=O)c34)[C@H]2C(C)(C)C1
OUTPUT: 2.18

* * *

For each record, write down the corresponding TGI.
System: NCI-H460 lung
Protocol Description: NCI tumour cell line growth inhibition, 48 h
Give bare numbers, in µM.

- Compound: "COc1cc(/C=C2\\CC3C4CC=C5C[C@@H](OC(C)=O)CC[C@]5(C)C4CC[C@]3(C)C2=O)ccc1OCCCn1ccnc1 (stereo not given in full)"
  TGI (µM): 21.1

Then this compound:
INPUT: Indicate its recorded TGI; the compound in question is ClC(Cl)c1nc(-c2cccnc2)n2nc(-c3ccccc3)cc2n1
OUTPUT: 4.21

* * *

For each record, write down the corresponding GI50.
Test system: OVCAR-8 ovarian

Take a look at these entries with their results.
- Molecule: "CC(C)c1ccc(C(=O)Nc2sc3c(c2C#N)CCC(=O)C3)cc1"
  GI50: "431 nM"
- Molecule: "O=C(Nc1ccc(F)cc1)c1c(NC(=O)C(F)(F)F)sc2c1CCCCC2"
  GI50: "2800 nM"
- Molecule: "CC[C@@]1(O)C(=O)NCc2c1cc1n(c2=O)Cc2cc3c(N)cccc3nc2-1"
  GI50: "2390 nM"
- Molecule: "Cc1sc(C)c(Cc2c(C)sc(C)c2CCl)c1CCl"
  GI50: "> 100000 nM"
- Molecule: "O=c1nc(Nc2cccc(Cl)c2)oc2cc(Cl)oc(=O)c12"
  GI50: "7060 nM"

Please report GI50 for every entry that follows.
1. Clc1ccc2[nH]cc(-c3nc(-c4c[nH]c5ncccc45)cs3)c2c1
2. CC/C=C\C[C@H](O)C/C=C1/C(=O)C=C[C@@H]1C/C=C\CCCC(=O)N(C)C
3. CCOC(=O)C(=Cc1ccccc1[N+](=O)[O-])C(=O)OCC

OUTPUT:
3870 nM
1540 nM
2870 nM

* * *

For each record, write down the corresponding GI50.
System: OVCAR-5 ovarian

Take a look at these entries with their results.
- Molecule: "CC/C=C\\C[C@H](O)C/C=C1/C(=O)C=C[C@@H]1C/C=C\\CCCC(=O)N(C)C"
  GI50: "2.46 µM"
- Molecule: "CCOC(=O)C(=Cc1ccccc1[N+](=O)[O-])C(=O)OCC"
  GI50: "5.75 µM"
- Molecule: "OCC1OC(n2ccc3c(NO)ncnc32)C(O)C1O (centres undefined)"
  GI50: "0.247 µM"

Then this molecule:
INPUT: Indicate its recorded GI50; the molecule in question is CCOC(=O)Oc1cc2c(c(OC)c1OC)-c1ccc(SC)c(=O)cc1C(NC(=O)C(F)(F)F)CC2 (centres undefined)
OUTPUT: 18.2 µM

* * *

For each record, write down the corresponding TGI.
Test system: K-562 leukemia
Protocol Description: NCI tumour cell line growth inhibition, 48 h

Take a look at these entries with their results.
- Compound: "CCOc1cc(NC(C)=O)ccc1C(=O)NN1C(=O)C(Oc2ccccc2)C1c1ccccc1 (configuration not stated)"
  TGI: "> 100 µM"
- Compound: "NC1CCN(c2nc(Nc3cccc(C(F)(F)F)c3)c3c(=O)[nH]ccc3n2)CC1"
  TGI: "3.21 µM"
- Compound: "CCOc1ccc(/C=C(\\Cl)c2ccc(OC)c(OC)c2)cc1"
  TGI: "> 100 µM"
- Compound: "NNc1nc2ccccc2c(=O)n1NC(=O)C(=O)Nc1cccc(C(F)(F)F)c1"
  TGI: "> 100 µM"
- Compound: "COc1ccc(O[C@H](COCc2ccccc2)C[C@@H]2COC(C)(C)O2)cc1"
  TGI: "> 100 µM"
- Compound: "CC(=O)OCC1OC(n2cc(F)c(=O)[nH]c2=O)C(N)C(OC(C)=O)C1OC(C)=O (configuration not stated)"
  TGI: "> 100 µM"
- Compound: "CCCCNN"
  TGI: "> 100 µM"
- Compound: "CC(C)c1ccc(/C(C(=O)O)=C(\\O)C(=O)O)cc1"
  TGI: "> 100 µM"
- Compound: "O=C(Nc1ccc(Cl)cc1)c1ccc(NC2=C(Cl)C(=O)N(Cc3ccccc3)C2=O)cc1"
  TGI: "48.9 µM"
- Compound: "COc1ccc2c(Nc3ccc(NS(C)(=O)=O)cc3)c3ccccc3nc2c1"
  TGI: "> 100 µM"

Please report TGI for every entry that follows.
1. Cc1ccc(S(=O)(=O)NC(=O)NC23CC4CC(CC(F)(C4)C2)C3)cc1
2. Cn1c(=O)nc2n(-c3cccc(F)c3)c3ccccc3nc-2c1=O
3. O=C1CC(=O)c2c(O)cc(O)c(c2O)-c2c(ccc(O)c2O)C2=CC(=O)c3c(O)cc(O)c(c3O2)-c2c1ccc(O)c2O (tested in a mixture with another compound)
4. CC(=O)N1CCc2c([nH]c3ccc(Br)cc23)C1c1ccccc1 (configuration not stated)
5. NNc1cccc(/C=C/c2ccccc2)cc1=O
6. C=CC1ON(Cc2ccccc2)CCc2cc(OC)c(OC)cc21 (configuration not stated)
7. CCOC(=O)c1cc(C(=O)c2ccccc2)n2nc(-c3ccc(Cl)cc3)ccc12
8. O=C1C(NCCc2ccc(O)c(O)c2)=CC(=O)c2ncccc21

OUTPUT:
> 100 µM
58.1 µM
> 50 µM
> 10 µM
> 100 µM
> 100 µM
> 100 µM
20.2 µM

Please report TGI for every entry that follows.
1. c1ccc(-c2sc(-c3cccs3)cc2Cc2cccs2)cc1
2. O=C(/C=C/c1ccsc1)c1ccco1

OUTPUT:
1. > 10 µM
2. > 56.4 µM

Please report TGI for every entry that follows.
1. O=[N+]([O-])c1ccc(N/N=C/c2c(O)ccc3ccccc23)nc1
2. Cn1c(=O)c2c(nc3n(Cc4ccccc4)c(=O)c(NCCBr)cn23)n(C)c1=O

OUTPUT:
> 100 µM
> 100 µM

* * *

For each record, write down the corresponding TGI.
System: A498 renal
Protocol Description: NCI tumour cell line growth inhibition, 48 h

Take a look at these entries with their results.
- Compound: "C/C(=N\\NS(=O)(=O)c1ccccc1)c1ccccc1"
  Tested System: "A498 renal"
  Reported Metric: "TGI"
  Result: "> 100 µM"
- Compound: "FC(F)(F)c1ccccc1N1CCN(c2nc(-c3cccs3)nc3ccc(Br)cc23)CC1"
  Tested System: "A498 renal"
  Reported Metric: "TGI"
  Result: "> 100 µM"
- Compound: "COc1ccc2c(c1OC)C1=C(C2=O)c2cc3c(cc2CCN1)OCO3"
  Tested System: "A498 renal"
  Reported Metric: "TGI"
  Result: "> 100 µM"
- Compound: "CN1CCCN(C)C1c1cc([N+](=O)[O-])ccc1O"
  Tested System: "A498 renal"
  Reported Metric: "TGI"
  Result: "> 100 µM"
- Compound: "Cc1c(C(=O)NCCO)[n+](=O)c2cc(Cl)ccc2n1[O-]"
  Tested System: "A498 renal"
  Reported Metric: "TGI"
  Result: "> 100 µM"

Please report TGI for every entry that follows.
1. C1CCN(c2nsc(N3CCCCC3)n2)CC1
2. OCC1OC(n2ccc3c(NO)ncnc32)C(O)C1O (centres undefined)
3. CC[C@@]1(O)C(=O)NCc2c1cc1n(c2=O)Cc2cc3c(N)cccc3nc2-1
4. CCOC(=O)c1sc2nc(SC)nc3c2c1NC(=O)CN3c1cccc(F)c1
5. O=c1cc2ccccc2nn1Cc1ccccc1Cl
6. COc1ccc2c(Nc3ccc(NS(C)(=O)=O)cc3)c3ccccc3nc2c1
7. Cc1c(C(=O)c2ccccc2C(=O)O)c2ccccc2n1C
8. COC(=O)C1=C(C)NC2(O)C=CC(=O)C3C(=O)N(c4ccccc4)C(=O)C132 (centres undefined)

OUTPUT:
1. > 100 µM
2. 0.794 µM
3. 38.6 µM
4. 43.1 µM
5. > 100 µM
6. 2.05 µM
7. > 100 µM
8. > 100 µM

Please report TGI for every entry that follows.
1. NC(=O)c1cc(Br)cc(C2CCCCC2)c1O
2. Cn1ccn2c3nc4ccccc4nc3c(=O)c(C#N)c12
3. COC1CC2C=C(C)/C=C/C=C/C(=O)NC(c3ccccc3)C/C=C/CCC(O)CC(=O)C2=C1O (centres undefined)

OUTPUT:
["14.8 µM", "> 100 µM", "0.654 µM"]

Please report TGI for every entry that follows.
1. O=C(CC/C=C(/CS(=O)(=O)c1ccccc1)S(=O)(=O)c1ccccc1)c1ccccc1
2. NNc1nc2ccccc2c(=O)n1NC(=O)C(=O)Nc1cccc(C(F)(F)F)c1
3. C=CC1ON(Cc2ccccc2)CCc2cc(OC)c(OC)cc21 (centres undefined)
4. O=C(/C=C/c1cccc(Br)c1)c1cccs1
5. COc1cc(C2SCC(=O)N2c2ccc(-n3c(-c4ccccc4)nc4ccccc4c3=O)cc2)ccc1O (centres undefined)
6. Cc1ccc(OCC2OC(n3cnc4c(N(C)C)nc(Br)nc43)CC2Oc2ccc(C)cc2)cc1 (centres undefined)

OUTPUT:
1. > 100 µM
2. > 100 µM
3. 67.8 µM
4. 33.2 µM
5. > 100 µM
6. > 100 µM

Please report TGI for every entry that follows.
1. CN(C)c1nc(NC23CC4CC(CC(C4)C2)C3)nc(N(C)C)n1
2. CC(=O)O[C@H]1CC[C@@]2(C)C(=CC[C@H]3C4=CC=C(C(C)=O)[C@@]4(C)CCC32)C1 (some centres undefined)
3. COCCOC(=O)NC(=O)Nc1ccc(/C(=N/O)c2ccc(Cl)cc2)cc1
4. COc1ccc2cc1Oc1ccc(cc1)C(Sc1ccccc1)CCOC(=O)CC2 (centres undefined)
5. Cn1c(C(C#N)c2nc(Cl)ncc2Br)nc2ccccc21 (centres undefined)
6. Cc1ccc(S(=O)(=O)NC(=O)NC23CC4CC(CC(F)(C4)C2)C3)cc1

OUTPUT:
1: > 100 µM; 2: > 100 µM; 3: 3.46 µM; 4: > 100 µM; 5: > 100 µM; 6: > 100 µM
